All figures here come from the C3SDB collision cross section collection.

Kindly state collision cross section (N2) for each of the entries shown.
Settings: [M-H]-; instrument: DT; single field, calibrated with Agilent tune mix (Agilent)
Quick reminder: number only, in Å², skip the unit.

Query: For the molecule shown here, CC(C)[C@H](C(=O)O)[C@@H](O)C(=O)O [3-Isopropylmalate] , give the reported collision cross section (N2).
Response: 127.46

Query: For C[C@H](CCC(=O)O)[C@H]1CC[C@H]2[C@@H]3CC[C@@H]4C[C@H](O)CC[C@]4(C)[C@H]3C[C@H](O)[C@]12C [Deoxycholic acid] then?
Response: 200.7

Query: Follow-up item: C[C@]12CCC(=O)C[C@@H]1CC[C@@H]1[C@@H]2CC[C@]2(C)C(=O)CC[C@@H]12 [5alpha-Androstane-3,17-dione]
Response: 174.32

Query: Again, but for CC(=O)NCCc1c[nH]c2ccc(O)cc12 [N-Acetylserotonin]
Response: 148.65

Query: Let us now turn to CCCCCCCC/C=C\CCCCCCCC(=O)O [Oleic acid]
Response: 173.88

Query: // same read-out, input: Nc1ncnc2c1ncn2[C@@H]1O[C@H](CO)[C@@H](OP(=O)(O)O)[C@H]1O [Adenosine 3'-monophosphate]
Response: 171.18

Query: Moving on to NCc1[nH]cc(CCC(=O)O)c1CC(=O)O [Porphobilinogen]
Response: 146.22

Query: Same lookup for Cn1c(=O)ccn([C@@H]2O[C@H](CO)[C@@H](O)[C@H]2O)c1=O [3-Methyluridine] , please.
Response: 166.84

Query: Can you check C[C@@H]1O[C@@H](OC[C@H]2O[C@@H](Oc3c(-c4ccc(O)c(O)c4)oc4cc(O)cc(O)c4c3=O)[C@H](O)[C@@H](O)[C@@H]2O)[C@H](O)[C@H](O)[C@H]1O [Rutin] next?
Response: 231.04

Query: What about O=C(O)[C@@H]1CCCCN1 [L-Pipecolic acid] ?
Response: 126.71

Query: Also Cn1c(=O)[nH]c(=O)c2c1[nH]c(=O)n2C [3,7-Dimethyluric acid] , if possible.
Response: 133.95

Query: Okay, and O=C(O)CCCCCCCCCCCCCCCO [16-Hydroxypalmitic acid] ?
Response: 168.99

Query: Same for CNCCCC[C@H](N)C(=O)O [N6-Methyl-L-lysine]
Response: 134.21

Query: Queued: C=C(C)CCOP(=O)(O)OP(=O)(O)O [Isopentenyl pyrophosphate]
Response: 141.71

Query: Cool, now O=C(O)CC(Nc1ncnc2c1ncn2[C@@H]1O[C@H](COP(=O)(O)O)[C@@H](O)[C@H]1O)C(=O)O (some centres not stated) [Adenylsuccinic acid]
Response: 183.19

Query: Now the molecule CC(O)CCCC(=O)O (configuration not stated) [5-Hydroxyhexanoic acid]
Response: 125.8

Query: Query O=C(O)CCCCCCC(=O)NCC(=O)O [Suberylglycine] next
Response: 146.81

----------
Please provide measured collision cross section (N2) for the entries that follow.
Settings: [M-H]-; instrument: DT; single field, calibrated with Agilent tune mix (Agilent)

Query: # get_value(readout='collision cross section (N2)', item= NCCC[C@@H](N)C(=O)O [D-Ornithine] )
Response: 126.74 Å²

Query: Now consider CO[C@H]1[C@@H](O)[C@H](n2cnc3c(=O)nc(N)[nH]c32)O[C@@H]1CO [3'-O-methylguanosine] and answer again.
Response: 163.78 Å²

Query: And CC(CCC(=O)O)C(=O)O (stereo not given) [2-Methylglutaric acid] ?
Response: 123.84 Å²

Query: Another compound to look at: O=CNc1ccccc1C(=O)O [Formylanthranilic acid]
Response: 127.28 Å²

Query: Let us now turn to NCC(=O)N1CCCC1C(=O)O (stereo not given) [Glycylproline]
Response: 134.59 Å²
